- Tested on: velvetleaf
- Protocol: Test A preemergence
- Assay type: in vivo, Abutilon theophrasti
- Reported conditions: 1000 g ai/ha, 0 to 100 scale, 0 no effect, 100 complete control, approx. 10 days
Property measured: Velvetleaf plant response rating

INSERT INTO results (compound, property_measured, result) VALUES
  ('CC(=O)Oc1cccc(Oc2ncc(Cl)cn2)c1-n1cc(Cl)cn1 [Compound 216]', 'Velvetleaf plant response rating', 30),
  ('C=C(C)c1cn(-c2c(Br)cccc2Oc2ncc(Cl)cn2)nn1 [Compound 114]', 'Velvetleaf plant response rating', 100),
  ('Clc1cnc(Oc2cccc(I)c2-n2cc(Br)cn2)nc1 [Compound 66]', 'Velvetleaf plant response rating', 90),
  ('Clc1cnc(Oc2ccccc2-n2cc(I)nn2)nc1 [Compound 222]', 'Velvetleaf plant response rating', 100);

* * *

Reported Blackgrass plant response rating values for a set of compounds
- Tested on: blackgrass
- Protocol: Test C postemergence
- Format: in vivo, Alopecurus myosuroides
- Reported conditions: 31 g ai/ha, postemergence; visual rating, scale 0 to 100 (0 no effect, 100 complete control), 13 to 15 days
Property measured: Blackgrass plant response rating

INSERT INTO measurements (smiles, numeric_result) VALUES
  ('FC(F)(F)c1cnn(-c2c(Br)cccc2Oc2ncc(Cl)cn2)c1', 0),
  ('N#Cc1cnn(-c2c(Oc3ncc(F)cn3)cccc2C(F)F)c1', 0),
  ('Clc1cnc(Oc2cccc(Cl)c2-n2cc(I)cn2)nc1', 5),
  ('Fc1cccc(Oc2ncc(Cl)cn2)c1-n1cc(Cl)cn1', 5),
  ('Clc1cnc(Oc2ccccc2-n2cc(Br)nn2)nc1', 30);

* * *

Reported Plant response rating, Barnyardgrass values for a set of compounds
- Test system: barnyardgrass
- Protocol: Test A postemergence
- Type: in vivo, Echinochloa crus-galli
- Reported conditions: 31 g ai/ha, 0 to 100 scale, 0 no effect, 100 complete control
Property measured: Plant response rating, Barnyardgrass

INSERT INTO measurements (smiles, assay_target, numeric_result) VALUES
  ('FCc1cccc(Oc2ncc(F)cn2)c1-n1cc(Cl)cn1', 'barnyardgrass', 0),
  ('Cc1cc(C(F)(F)F)nn1-c1ccccc1Oc1ncc(Cl)cn1', 'barnyardgrass', 0),
  ('Fc1cnc(Oc2ccccc2-n2cc(SC(F)(F)F)cn2)nc1', 'barnyardgrass', 0),
  ('N#Cc1cnn(-c2c(Br)cccc2Oc2ncc(Cl)cn2)c1', 'barnyardgrass', 30),
  ('FC(F)Oc1cnn(-c2c(Cl)cccc2Oc2ncc(Cl)cn2)c1', 'barnyardgrass', 10),
  ('N#Cc1cnn(-c2c(Cl)cccc2Oc2ncc(Cl)cn2)c1', 'barnyardgrass', 20),
  ('COc1cccc(Oc2ncc(Cl)cn2)c1-n1cc(Cl)cn1', 'barnyardgrass', 0);

* * *

- Test system: giant foxtail
- Protocol: Test A preemergence
- Assay type: in vivo, Setaria faberii
- Reported conditions: 125 g ai/ha, 0 to 100 scale where 0 is no effect and 100 is complete control
Property measured: Plant response rating, Foxtail, Giant

INSERT INTO measurements (compound, property_measured, numeric_result) VALUES
  ('Clc1cnc(Oc2ccccc2-n2ccnc2)nc1 [Compound 100]', 'Plant response rating, Foxtail, Giant', 0),
  ('CC(F)c1cccc(Oc2ncc(Cl)cn2)c1-n1cc(Br)cn1 (stereo not shown) [Compound 146]', 'Plant response rating, Foxtail, Giant', 70),
  ('C=C(C)c1cnn(-c2ccccc2Oc2ncc(Cl)cn2)c1 [Compound 32]', 'Plant response rating, Foxtail, Giant', 0),
  ('Brc1cnc(Oc2ccccc2-n2ccc(Br)n2)nc1 [Compound 20]', 'Plant response rating, Foxtail, Giant', 20),
  ('Clc1cnc(Oc2cc(Cl)ccc2-n2cc(Br)cn2)nc1 [Compound 51]', 'Plant response rating, Foxtail, Giant', 20),
  ('FCCc1cn(-c2c(F)cccc2Oc2ncc(Cl)cn2)nn1 [Compound 108]', 'Plant response rating, Foxtail, Giant', 90),
  ('Clc1cnc(Oc2cc(Cl)ccc2-n2cccn2)nc1 [Compound 49]', 'Plant response rating, Foxtail, Giant', 0);

* * *

- System: pigweed
- Protocol: Test A preemergence
- Assay type: in vivo, Amaranthus retroflexus
- Reported conditions: 500 g ai/ha, 0 to 100 scale where 0 is no effect and 100 is complete control
Reported Pigweed plant response rating values for a set of compounds
Property measured: Pigweed plant response rating

INSERT INTO results (smiles, numeric_result) VALUES
  ('COc1cnn(-c2ccccc2Oc2ncc(Cl)cn2)c1', 100),
  ('FC(F)c1cccc(Oc2ncc(Cl)cn2)c1-n1cc(I)cn1', 100),
  ('Fc1cnc(Oc2cccc(C(F)F)c2-n2cc(C(F)(F)F)cn2)nc1', 100),
  ('N#Cc1cccc(Oc2ncc(Cl)cn2)c1-n1cccn1', 100),
  ('NC(=S)c1cccc(Oc2ncc(Cl)cn2)c1-n1cc(Cl)cn1', 100),
  ('N#Cc1cnn(-c2c(Oc3ncc(F)cn3)cccc2C(F)F)c1', 100),
  ('FC(F)c1cnn(-c2c(Cl)cccc2Oc2ncc(Cl)cn2)c1', 100),
  ('NN=Cc1cccc(Oc2ncc(Cl)cn2)c1-n1cc(Br)cn1', 90),
  ('COc1ccc(C#N)c(-n2cc(Br)cn2)c1Oc1ncc(Cl)cn1', 90),
  ('O=Cc1cccc(Oc2ncc(Br)cn2)c1-n1cc(Cl)cn1', 50),
  ('COC(=O)c1cccc(Oc2ncc(Cl)cn2)c1-n1cc(Br)cn1', 100),
  ('C#Cc1cccc(Oc2ncc(Cl)cn2)c1-n1cc(Br)cn1', 100);

* * *

- Tested on: barnyardgrass
- Protocol: Test B flooded paddy test
- Format: in vivo, Echinochloa crus-galli
- Reported conditions: Flood, 250 g ai/ha; 0 to 100 scale where 0 is no effect and 100 is complete control
Property measured: Plant response rating, Barnyardgrass

INSERT INTO results (compound, property_measured, numeric_result) VALUES
  ('Clc1cnc(Oc2ccccc2-n2cc(-c3ccccc3)cn2)nc1 [Compound 22]', 'Plant response rating, Barnyardgrass', 20),
  ('Clc1cnc(Oc2ccccc2-n2ccc(Br)n2)nc1 [Compound 21]', 'Plant response rating, Barnyardgrass', 25),
  ('Clc1cnc(Oc2cc(Cl)ccc2-n2cccn2)nc1 [Compound 49]', 'Plant response rating, Barnyardgrass', 0),
  ('Fc1cnc(Oc2ccccc2-n2cc(C(F)F)cn2)nc1 [Compound 228]', 'Plant response rating, Barnyardgrass', 0),
  ('COc1ccc(Oc2ncc(Br)cn2)c(-n2cc(Br)cn2)c1 [Compound 43]', 'Plant response rating, Barnyardgrass', 0),
  ('FC(F)c1cnn(-c2c(Cl)cccc2Oc2ncc(Cl)cn2)c1 [Compound 192]', 'Plant response rating, Barnyardgrass', 0),
  ('FC(F)c1cnn(-c2c(Br)cccc2Oc2ncc(Cl)cn2)c1 [Compound 232]', 'Plant response rating, Barnyardgrass', 10),
  ('FC(F)c1cccc(Oc2ncc(Cl)cn2)c1-n1cc(I)cn1 [Compound 184]', 'Plant response rating, Barnyardgrass', 0),
  ('FCCc1cn(-c2c(F)cccc2Oc2ncc(Cl)cn2)nn1 [Compound 108]', 'Plant response rating, Barnyardgrass', 0),
  ('N#Cc1cnn(-c2c(C#N)cccc2Oc2ncc(Br)cn2)c1 [Compound 135]', 'Plant response rating, Barnyardgrass', 30),
  ('FC(F)c1cccc(Oc2ncc(Br)cn2)c1-n1cc(Cl)cn1 [Compound 210]', 'Plant response rating, Barnyardgrass', 0),
  ('FC(F)Oc1cnn(-c2c(Cl)cccc2Oc2ncc(Cl)cn2)c1 [Compound 258]', 'Plant response rating, Barnyardgrass', 60),
  ('COc1cnn(-c2ccccc2Oc2ncc(Cl)cn2)c1 [Compound 186]', 'Plant response rating, Barnyardgrass', 0),
  ('CC(C)Oc1cnn(-c2c(C#N)cccc2Oc2ncc(Cl)cn2)c1 [Compound 149]', 'Plant response rating, Barnyardgrass', 0),
  ('FCc1cccc(Oc2ncc(Cl)cn2)c1-n1cc(I)cn1 [Compound 245]', 'Plant response rating, Barnyardgrass', 0),
  ('N#Cc1cccc(Oc2ncc(I)cn2)c1-n1cc(I)cn1 [Compound 87]', 'Plant response rating, Barnyardgrass', 0);

* * *

Reported Plant response rating (0 to 100), Oilseed Rape values for a set of compounds
- Test system: oilseed rape
- Protocol: Test C postemergence
- Type: in vivo, Brassica napus
- Reported conditions: 16 g ai/ha, postemergence; 0 is no effect, 100 is complete control
Property measured: Plant response rating (0 to 100), Oilseed Rape

INSERT INTO results (smiles, numeric_result) VALUES
  ('Fc1cnc(Oc2ccccc2-n2cc(C(F)F)cn2)nc1', 40),
  ('Cc1cnc(Oc2cccc(C#N)c2-n2cc(C(F)(F)F)cn2)nc1', 15),
  ('FC(F)(F)c1cnn(-c2c(Br)cccc2Oc2ncc(Cl)cn2)c1', 10),
  ('Clc1cnc(Oc2cccc(Br)c2-n2cc(I)nn2)nc1', 25),
  ('O=Cc1cccc(Oc2ncc(I)cn2)c1-n1cc(Br)cn1', 0),
  ('Clc1cnc(Oc2cccc(Cl)c2-n2cc(I)cn2)nc1', 55),
  ('FC(F)Oc1cnn(-c2c(Cl)cccc2Oc2ncc(Cl)cn2)c1', 70),
  ('Clc1cnc(Oc2cccc(Cl)c2-n2cc(Cl)cn2)nc1', 50);
